- assayedSystem: recombinant 15-PGDH protein (Homo sapiens (Human))
- protocol: Inhibition of enzymatic activity of recombinant 15-PGDH in vitro
- Type: biochemical
- assaySetup: read-out: Enzyme inhibition % ([…]), recombinant 15-PGDH, […] compound; read-out: Enzyme inhibition % (7.5 μM)
readoutKind: inhibition at […] (%)

>>> assayresult("COc1ccc(OC)c(N(CC(=O)Nc2csnc2C)S(=O)(=O)c2ccccc2)c1")
58.9

A: COc1ccc(OC)c(N(CC(=O)Nc2cccnc2)C(C)=O)c1
B: COc1ccc(OC)c(N(CC(=O)Nc2ccnc(Cl)c2)S(=O)(=O)c2ccccc2)c1
Task: Given A and given B , which shows the smaller recorded inhibition at […]? Answer format: the label of the selected item.
Result: A
(A: 57%, B: 89.8%)

---

- assayedSystem: recombinant 15-PGDH protein (Homo sapiens (Human), UniProt P15428)
- Sequence (P15428 whole entry): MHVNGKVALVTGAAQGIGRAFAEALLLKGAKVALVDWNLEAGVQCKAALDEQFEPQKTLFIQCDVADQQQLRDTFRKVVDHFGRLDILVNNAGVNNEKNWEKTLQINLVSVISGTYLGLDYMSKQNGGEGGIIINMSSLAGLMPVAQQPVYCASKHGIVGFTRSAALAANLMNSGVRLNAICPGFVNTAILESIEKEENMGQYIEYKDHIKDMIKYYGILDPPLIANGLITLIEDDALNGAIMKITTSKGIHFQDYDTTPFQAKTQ
- protocol: Inhibition of enzymatic activity of recombinant 15-PGDH in vitro;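 also: activity of recombinant human 15-PGDH assayed in vitro using PGE2 as the substrate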
- Assay type: biochemical
- assaySetup: read-out: Enzyme inhibition % ([…]), Table 18; […] compound; read-out: Enzyme inhibition % (2.5 μM)
readoutKind: inhibition at […] (%)

# example entries with known answers
>>> assayresult("O=C(CN(c1cc(Cl)ccc1Cl)S(=O)(=O)c1ccccc1)Nc1cccnc1 [833428-03-8]")
16.4
>>> assayresult("COc1ccc(Cl)cc1N(CC(=O)Nc1cccnc1)S(=O)(=O)c1ccccc1 [328012-52-8]")
67.4
>>> assayresult("COc1ccc(OC)c(N(CC(=O)Nc2ccccc2C(N)=O)S(=O)(=O)c2ccccc2)c1 [530107-57-4]")
21.7
>>> assayresult("COc1ccc(C)cc1N(CC(=O)Nc1cccnc1)S(=O)(=O)c1ccccc1 [526206-05-3]")
42

P: COc1ccc(OC)c(N(CC(=O)Nc2ccc(C)cc2)S(=O)(=O)c2ccccc2)c1 [311333-86-5]
Q: CCc1ccccc1N(CC(=O)Nc1cccnc1)S(=O)(=O)c1ccccc1 [528580-69-0]
R: O=C(CN(c1ccc2c(c1)OCCO2)S(=O)(=O)c1ccccc1)Nc1cccnc1 [701217-00-7]
S: COc1ccc(OC)c(N(CC(=O)Nc2ccc(Cl)c(Cl)c2)S(=O)(=O)c2ccccc2)c1 [339589-55-8]
T: COc1ccc(OC)c(N(CC(=O)Nc2cccnc2)S(=O)(=O)c2ccc(C)cc2)c1 [505072-23-1]
Task: Order the records by inhibition at […], with each subsequent value no larger than the one before. Answer by listing the labels in the requested order.
Result: T, P, S, R, Q

a: O=C(CN(c1ccccc1)S(=O)(=O)c1ccccc1)Nc1cccnc1 [331727-07-2]
b: COc1ccc(OC)c(N(CC(=O)Nc2cccc(Cl)c2)S(=O)(=O)c2ccccc2)c1 [311315-25-0]
Task: Given a and given b , which shows the smaller recorded inhibition at […]? Answer format: the label of the selected item.
Result: a
(a: 9.65%, b: 18.7%)

---

- assayedSystem: recombinant 15-PGDH protein (Homo sapiens (Human))
- protocol: Inhibition of enzymatic activity of recombinant 15-PGDH in vitro
- Type: biochemical
- assaySetup: read-out: Enzyme inhibition % ([…]), Table 18; […] compound; read-out: Enzyme inhibition % (7.5 μM)
readoutKind: inhibition at […] (%)

# example entries with known answers
>>> assayresult("COc1ccccc1N(CC(=O)Nc1cccnc1)S(=O)(=O)c1ccccc1")
34.8
>>> assayresult("CCOc1ccc(N(CC(=O)Nc2cccnc2)S(=O)(=O)c2ccccc2)cc1")
8.67
>>> assayresult("COc1ccc(OC)c(N(CC(=O)Nc2ccc(Cl)cc2)S(=O)(=O)c2ccccc2)c1")
37.4
>>> assayresult("COc1ccc(OC)c(N(CC(=O)Nc2ccc(F)cc2)S(=O)(=O)c2ccccc2)c1")
56.4

1: CCc1ccc(N(CC(=O)Nc2cccnc2)S(=O)(=O)c2ccccc2)cc1
2: COC(=O)c1ccccc1NC(=O)CN(c1cc(OC)ccc1OC)S(=O)(=O)c1ccccc1
3: COc1ccc(OC)c(N(CC(=O)Nc2cccnc2)S(C)(=O)=O)c1
4: O=C(CN(c1ccc2c(c1)OCCO2)S(=O)(=O)c1ccccc1)Nc1cccnc1
Task: Order the records by inhibition at […], with each subsequent value no larger than the one before. Answer by listing the labels in the requested order.
Result: 3, 4, 1, 2
(3: 27.9%, 4: 13.1%, 1: 3.35%, 2: -3.12%)
